The values you see were collected from patent US20080194584A1.

System: Rho kinase (ROK, ROCK)
Test: Rho kinase inhibitory activity (ROK activity)
Format: biochemical
Set-up: key: +: active; ++: more active; +++: very active
Settings: assays conducted at 1-100 μM
reported.property: ROK activity

Worked examples follow.
* O=S(=O)(Nc1cncc(-c2ccncc2)c1)c1ccc(Cl)cc1 | +
* Fc1cc(CNc2cncc(-c3ccnc(Cl)c3Cl)c2)ccc1Cl | +
* Fc1cc(CNc2cncc(-c3ccnc(Cl)c3F)c2)ccc1Cl | +
* Clc1cccc(Cl)c1CNc1cncc(-c2ccncc2)c1 | +
* CC(C)(C)OC(=O)N1CCC(Nc2cncc(-c3ccncc3)c2)CC1 | +

What ROK activity value was documented for this compound, O=C(Cc1ccc(Cl)cc1)Nc1cncc(-c2ccncc2)c1 ?
+

What ROK activity value was documented for this compound, Fc1cc(CNc2cccc(-c3ccncc3)c2)ccc1Cl ?
+++

What ROK activity value was documented for this compound, FC(F)(F)c1cc(Cl)ccc1CNc1cncc(-c2ccncc2)c1 ?
++

What ROK activity value was documented for this compound, Fc1cc(Cl)ccc1CNc1cncc(-c2ccncc2)c1 ?
+++

What ROK activity value was documented for this compound, Fc1ccc(CNc2cncc(-c3ccncc3)c2)c(F)c1 ?
+++

---

Tested on: Rho kinase (ROK, ROCK)
Assay: Rho kinase inhibitory activity (ROK activity)
Format: biochemical
Set-up: key: +: active; ++: more active; +++: very active
Conditions: assays conducted at 1-100 μM
reported.property: ROK activity

Worked examples follow.
* Fc1cc(CNc2cncc(-c3ccnc(Cl)c3)c2)ccc1Cl [Example 4] | +
* CC(O)CNc1cc(-c2cncc(NCc3ccc(Cl)cc3)c2)ccn1 (stereo not drawn) [Example 12] | +
* O=C(Nc1cncc(-c2ccncc2)c1)c1ccc(Cl)cc1 [Example 20] | +
* FC(F)(F)c1cccc(CNc2cncc(-c3ccncc3)c2)c1 [Example 17] | ++
* CC(C)(C)OC(=O)N1CCC(CNc2cncc(-c3ccncc3)c2)CC1 [Example 14] | +

Read the next record carefully.
What ROK activity value was documented for this compound, c1ccc(CNc2cncc(-c3ccncc3)c2)cc1 [Example 9, Benzyl-[3,4′]bipyridinyl-5-yl-amine] ?
+++

---

System: Rho kinase (ROK, ROCK)
Assay: Rho kinase inhibitory activity (ROK activity)
Assay type: biochemical
Set-up: key: +: active; ++: more active; +++: very active
Details: assays conducted at 1-100 μM
reported.property: ROK activity

* Fc1cc(CNc2cncc(-c3cccc4ncccc34)c2)ccc1Cl | ++
* c1cc(-c2cncc(NCC3CCCNC3)c2)ccn1 (stereo not drawn) | ++
* FC(F)(F)c1ccc(CNc2cncc(-c3ccncc3)c2)cc1 | +++
* CC(C)(C)OC(=O)N1CCCC(CNc2cncc(-c3ccncc3)c2)C1 (stereo not drawn) | +
* Fc1cc(CNc2cncc(-c3ccncc3F)c2)ccc1Cl | +++

Read the next record carefully.
What value of ROK activity on Rho kinase (ROK, ROCK) does Fc1cc(CNc2cncc(-c3ccncc3Cl)c2)ccc1Cl have?
+++
